The origin of these recorded values is patent US11912686B2.

Kindly supply the reported EC50 values for the records listed here.
- tgt: human LPAR1 (Homo sapiens (Human), UniProt Q92633)
- Sequence (Q92633 whole entry): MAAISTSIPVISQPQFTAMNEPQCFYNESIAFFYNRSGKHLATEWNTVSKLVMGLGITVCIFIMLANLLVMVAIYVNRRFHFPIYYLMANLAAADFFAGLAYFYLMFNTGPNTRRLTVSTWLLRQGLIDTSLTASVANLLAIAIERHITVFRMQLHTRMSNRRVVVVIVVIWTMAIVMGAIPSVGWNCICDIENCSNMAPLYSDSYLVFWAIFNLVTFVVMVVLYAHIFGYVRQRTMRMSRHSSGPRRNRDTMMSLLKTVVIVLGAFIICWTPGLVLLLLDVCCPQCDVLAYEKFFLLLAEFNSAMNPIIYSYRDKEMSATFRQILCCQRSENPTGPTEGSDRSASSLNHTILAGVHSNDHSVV
- protocol description: LPAR1 intracellular calcium mobilization assay (antagonist mode, FLIPR)
- Format: cell-based
- condition summary: CHO-K1 EDG2 cells expressing human LPAR1, LPA 18:2 at EC80 (100 nM), test compound 0.5 nM to 10 μM
Response body: numeric value in nM, unit text excluded.

Inquiry: Provide only the value of recorded EC50 for C[C@@H](OC(=O)Nc1c(-c2ccc(NC(=O)C34CC(C)(C3)C4)cn2)nnn1C)c1cccnc1Cl [Compound 47]
Reply text: 19.1

Inquiry: In one line, give reported EC50 of the entry C[C@@H](OC(=O)Nc1c(-c2ccc(NC(=O)c3cnn(C)c3)cn2)nnn1C)c1cccnc1Cl [Compound 112] .
Reply text: 1400

Inquiry: Assign EC50 to the following record: C[C@@H](OC(=O)Nc1c(-c2ccc(NC(=O)c3cnc(C(F)(F)F)nc3)cn2)nnn1C)c1cc(F)cnc1Cl [Compound 290]
Reply text: 10.9

Inquiry: Identify the reported EC50 for the following entry. C[C@@H](OC(=O)Nc1c(-c2ccc(NC(=O)C3CN(CC(F)(F)F)C3)cn2)nnn1C)c1cccnc1Cl [Compound 309]
Reply text: 133

Inquiry: Hello, please tell me recorded EC50 for this one: C[C@@H](OC(=O)Nc1c(-c2ccc(NC(=O)c3cnnc(C(F)(F)F)c3)cn2)nnn1C)c1cc(F)cnc1F [Compound 259]
Reply text: 101

Inquiry: Answer with reported EC50 of C[C@@H](OC(=O)Nc1c(-c2ccc(NC(=O)C3(C(F)F)CC3)cn2)nnn1C)c1cc(F)cnc1F [Compound 165]
Reply text: 487

Inquiry: Entry C[C@H](O)C(=O)Nc1ccc(-c2nnn(C)c2NC(=O)O[C@H](C)c2cccnc2Cl)nc1 [Compound 125] needs its EC50 filled in; supply it.
Reply text: 2710

Inquiry: Identify the reported EC50 for the following entry. C[C@@H](OC(=O)Nc1c(-c2ccc(NC(=O)C3CC(F)(F)C3)cn2)nnn1C)c1cc(F)cnc1F [Compound 28]
Reply text: 29.1

Inquiry: Using the record for C[C@@H](OC(=O)Nc1c(-c2ncc(NC(=O)c3ccc(C(F)(F)F)nc3)cn2)nnn1C)c1cc(F)cnc1Cl [Compound 332] , state its measured EC50.
Reply text: 354

Inquiry: Retrieve EC50 measured for CC(OC(=O)Nc1c(-c2ccc(NC(=O)C(F)(F)F)cn2)nnn1C)c1cc(Br)cnc1F (centres unmarked) [Compound 12] and print it.
Reply text: 541

Inquiry: Give the measured EC50 for C[C@@H](OC(=O)Nc1c(-c2ccc(NC(=O)C3(C(F)(F)F)CC3)cn2)nnn1C)c1cccnc1Cl [Compound 55]
Reply text: 478

Inquiry: Supply EC50 value. Item: C[C@@H](OC(=O)Nc1c(-c2ccc(NC(=O)c3cnc(C#N)nc3)cn2)nnn1C)c1cc(F)cnc1F [Compound 235]
Reply text: 26.5

Inquiry: Provide measured EC50 value, entry: CO[C@H]1C[C@@H](C(=O)Nc2ccc(-c3nnn(C)c3NC(=O)O[C@H](C)c3cccnc3Cl)nc2)C1 [Compound 157]
Reply text: 74.5

Inquiry: For the compound Cc1nc2cc(C(=O)Nc3ccc(-c4nnn(C)c4NC(=O)O[C@H](C)c4cc(F)cnc4F)nc3)cnc2[nH]1 [Compound 277] , report EC50.
Reply text: 955

* * *

- tgt: human LPAR1 (Homo sapiens (Human))
- protocol description: LPAR1 intracellular calcium mobilization assay (antagonist mode, FLIPR)
- Type: cell-based
- condition summary: CHO-K1 EDG2 cells expressing human LPAR1, LPA 18:2 at EC80 (100 nM), test compound 0.5 nM to 10 μM
measure: EC50 (nM)
Write it as a number; the unit nM goes unstated.

Inquiry: Fill in EC50 for C[C@@H](OC(=O)Nc1c(-c2ccc(NC(=O)[C@@]3(C#N)C[C@@H]3C(F)(F)F)cn2)nnn1C)c1cccnc1Cl tested with human LPAR1 (Homo sapiens (Human)).
Reply text: 5

Inquiry: Tell me EC50 of C[C@@H](OC(=O)Nc1c(-c2ccc(NC(=O)C3(C#N)CCOCC3)cn2)nnn1C)c1cccnc1Cl when tested on human LPAR1 (Homo sapiens (Human)).
Reply text: 309

Inquiry: Report value only: EC50, human LPAR1 (Homo sapiens (Human)), Cc1cc(C(=O)Nc2ccc(-c3nnn(C)c3NC(=O)O[C@H](C)c3cccnc3Cl)nc2)ccn1
Reply text: 85.6

Inquiry: Give EC50 for C[C@@H](OC(=O)Nc1c(-c2ccc(NC(=O)C3COC3)cn2)nnn1C)c1cccnc1Cl tested on human LPAR1 (Homo sapiens (Human)).
Reply text: 339

Inquiry: Provide human LPAR1 (Homo sapiens (Human)) EC50 reading for C[C@@H](OC(=O)Nc1c(-c2cnc(NC(=O)C3(C#N)CC3)cn2)nnn1C)c1cc(F)cnc1F .
Reply text: 1130

Inquiry: State measured EC50 of the molecule C[C@@H](OC(=O)Nc1c(-c2ccc(NC(=O)c3ccc(F)nc3)cn2)nnn1C)c1cc(F)cnc1F with human LPAR1 (Homo sapiens (Human)).
Reply text: 158

Inquiry: Give EC50; test system human LPAR1 (Homo sapiens (Human)); molecule C[C@@H](OC(=O)Nc1c(-c2ccc(NC(=O)C3CCC3)cn2)nnn1C)c1cccnc1Cl
Reply text: 103

Inquiry: Write down the reported EC50 (system: human LPAR1 (Homo sapiens (Human))) of C[C@@H](OC(=O)Nc1c(-c2ccc(NC(=O)C3(C)CC(F)(F)C3)cn2)nnn1C)c1cc(F)cnc1F
Reply text: 184

Inquiry: Param request: EC50 | system human LPAR1 (Homo sapiens (Human)) | item C[C@@H](OC(=O)Nc1c(-c2ccc(NC(=O)C3(C(F)(F)F)CC(=O)C3)cn2)nnn1C)c1cccnc1Cl
Reply text: 2470

Inquiry: Name the value of EC50 reported for Cc1cnc(F)cc1C(C)OC(=O)Nc1c(-c2ccc(NC(=O)C3CC(F)(F)C3)cn2)nnn1C (stereo not drawn) when tested on human LPAR1 (Homo sapiens (Human)).
Reply text: 587

Inquiry: Name the recorded EC50 of C[C@@H](OC(=O)Nc1c(-c2ccc(NC(=O)c3cnccc3Cl)cn2)nnn1C)c1cc(F)cnc1F , assay system human LPAR1 (Homo sapiens (Human)).
Reply text: 551

Inquiry: Report value only: EC50, human LPAR1 (Homo sapiens (Human)), C[C@@H](OC(=O)Nc1c(-c2ccc(NC(=O)[C@@H]3C[C@H]3C3CC3)cn2)nnn1C)c1cc(F)cnc1F
Reply text: 588

Inquiry: Report the value of EC50 obtained on human LPAR1 (Homo sapiens (Human)) for C[C@@H](OC(=O)Nc1c(-c2ccc(NC(=O)C3(C#N)CC34CCC4)cn2)nnn1C)c1cccnc1Cl (stereo partly drawn) .
Reply text: 1340

Inquiry: State recorded EC50 with human LPAR1 (Homo sapiens (Human)), entry C[C@@H](OC(=O)Nc1c(-c2ccc(NC(=O)C3(C#N)CC(F)C3)cn2)nnn1C)c1cccnc1Cl (stereo partly drawn) , no comment.
Reply text: 197

Inquiry: Using human LPAR1 (Homo sapiens (Human)) as the test system, report measured EC50 of C[C@@H](OC(=O)Nc1c(-c2ccc(NC(=O)[C@H]3CCC3(F)F)cn2)nnn1C)c1cccnc1Cl .
Reply text: 187

* * *

Exercise: state measured EC50 for each of the molecules provided.
- tgt: human LPAR1 (Homo sapiens (Human))
- protocol description: LPAR1 intracellular calcium mobilization assay (antagonist mode, FLIPR)
- Format: cell-based
- condition summary: CHO-K1 EDG2 cells expressing human LPAR1, LPA 18:2 at EC80 (100 nM), test compound 0.5 nM to 10 μM
Field: numeric (nM). Do not append units.

Inquiry: System human LPAR1 (Homo sapiens (Human)). Read-out EC50. Item C[C@@H](OC(=O)Nc1c(-c2ccc(NC(=O)C3(c4cccnc4)CC3)cn2)nnn1C)c1cccnc1Cl . Report value.
Reply text: 4820

Inquiry: Provide EC50, system human LPAR1 (Homo sapiens (Human)), entry Cc1cc(C2(C(=O)Nc3ccc(-c4nnn(C)c4NC(=O)O[C@H](C)c4cccnc4Cl)nc3)CC2)on1
Reply text: 1450

Inquiry: Answer briefly: EC50 recorded on human LPAR1 (Homo sapiens (Human)) for Cc1ncc(F)cc1[C@@H](C)OC(=O)Nc1c(-c2ccc(NC(=O)C34CC(F)(C3)C4)cn2)nnn1C
Reply text: 46.5

Inquiry: Output reported EC50 of the molecule C[C@@H](OC(=O)Nc1c(-c2cnc(NC(=O)c3ccc(C(F)(F)F)nc3)cn2)nnn1C)c1cc(F)cnc1F on human LPAR1 (Homo sapiens (Human)).
Reply text: 170

Inquiry: Given C[C@@H](OC(=O)Nc1c(-c2ncc(NC(=O)C3(C#N)CC3)cc2F)nnn1C)c1cc(F)cnc1F , report its EC50 on human LPAR1 (Homo sapiens (Human)).
Reply text: 258

Inquiry: Name the value of EC50 reported for C[C@@H](OC(=O)Nc1c(-c2ccc(NC(=O)C3(CO)CC(F)(F)C3)cn2)nnn1C)c1cccnc1Cl when tested on human LPAR1 (Homo sapiens (Human)).
Reply text: 94

Inquiry: State EC50 (human LPAR1 (Homo sapiens (Human))) of C[C@@H](OC(=O)Nc1c(-c2ccc(NC(=O)C3(C#N)CC34CCCC4)cn2)nnn1C)c1cccnc1Cl (stereo partly drawn) .
Reply text: 312

Inquiry: Using human LPAR1 (Homo sapiens (Human)) as the test system, report measured EC50 of C[C@@H]1CCCN1C(=O)Nc1ccc(-c2nnn(C)c2NC(=O)O[C@H](C)c2cccnc2Cl)nc1 .
Reply text: 10000

Inquiry: Give EC50 only, for C[C@@H](OC(=O)Nc1c(-c2ccc(NC(=O)[C@@H]3C[C@H]3F)cn2)nnn1C)c1cccnc1F , using human LPAR1 (Homo sapiens (Human)) data.
Reply text: 191

Inquiry: Give EC50 only, for C[C@@H](OC(=O)Nc1c(-c2cc(F)c(NC(=O)C3(C#N)CC3)cn2)nnn1C)c1cccnc1Cl , using human LPAR1 (Homo sapiens (Human)) data.
Reply text: 1060

Inquiry: Answer with EC50 of C[C@@H](OC(=O)Nc1c(-c2ccc(NC(=O)C3(C#N)COC3)cn2)nnn1C)c1cccnc1Cl measured for human LPAR1 (Homo sapiens (Human)).
Reply text: 133

Inquiry: # return EC50 for C[C@@H](OC(=O)Nc1c(-c2ccc(NC(=O)C3CC4(COC4)C3)cn2)nnn1C)c1cccnc1Cl , test system: human LPAR1 (Homo sapiens (Human))
Reply text: 201

Inquiry: Send back human LPAR1 (Homo sapiens (Human)) EC50 of C[C@@H](OC(=O)Nc1c(-c2ccc(NC(=O)CO)cn2)nnn1C)c1cccnc1Cl only.
Reply text: 1830

Inquiry: State EC50 (human LPAR1 (Homo sapiens (Human))) of C[C@@H](OC(=O)Nc1c(-c2ccc(NC(=O)N3CCC(F)(F)C3)cn2)nnn1C)c1cccnc1Cl .
Reply text: 287

Inquiry: Answer with EC50 of C[C@@H](OC(=O)Nc1c(-c2ccc(NC(=O)[C@]3(C)C[C@H](C#N)C3)cn2)nnn1C)c1cccnc1Cl measured for human LPAR1 (Homo sapiens (Human)).
Reply text: 264
